test system: Mus musculus; assay: In vivo analgesic activity, mouse tail flick latency in antinociceptive assay; type: functional
MEASURE: ED50 (µmol/kg)
The response must be a number in µmol/kg with no trailing unit.

Previously resolved entries follow.
| COMPOUND | ED50 / µmol/kg |
| --- | --- |
| CCCCCCCCC(=O)NCc1ccc(O)c(O)c1 | 20 |
| COc1cc(CNC(=O)CCCC/C=C/C(C)C)ccc1O [CAPSAICIN] | 15 |
| CCCCCCCCNC(=O)Cc1ccc(O)c(O)c1 | 50 |

Quote ED50 reported for CCCCCCCCC(=O)NCc1ccc(O)c(OC)c1 [NONIVAMIDE] please. 5

---

species on record: Cavia porcellus; assay: In vitro contraction in guinea pig ileum equivalent to 50% capsaicin response; assay type: functional
Here the recorded EC50 is given for each entry.
Returns: string containing the numeric result and its unit.

| COMPOUND | RESULT |
| --- | --- |
| CCCCCCCCNC(=O)Cc1ccc(O)c(OCC)c1 | 4960 nM |

Give the value of EC50 reported for the following: CCCCCCCCNC(=O)Cc1ccc(O)c(O)c1 330 nM

Kindly indicate its recorded EC50. Item: CCCCCCCCC(=O)NCc1ccc(O)c(O)c1 220 nM

Consider the compound CCCCCCCCC(=O)NCc1ccc(O)c(OC)c1 [NONIVAMIDE] . State its measured EC50. 400 nM

Return the recorded EC50 value; entry: CCCCCCCCNC(=O)Cc1ccc(O)c(Cl)c1 680 nM

Entry CCCCCCCCNC(=O)Cc1ccc(O)c(OC)c1 needs its EC50 filled in; supply it. 330 nM

Provide measured EC50 value, entry: CCCCCCCCC(=O)NCc1ccc(OC)cc1 22200 nM

---

tested on: Mus musculus; test: In vivo analgesic activity, mouse tail flick latency in antinociceptive assay; format: functional
MEASURE: ED50

See these solved cases before continuing.
| CPD_SMILES | MEASURE | RESULT |
| --- | --- | --- |
| CCCCCCCCNC(=O)Cc1ccc(O)c(OCC)c1 | ED50 | > 50 µmol/kg |
| CCCCCCCCNC(=O)Cc1ccc(O)cc1 | ED50 | > 50 µmol/kg |
| CCCCCCCCNC(=O)Cc1ccc(O)c(Cl)c1 | ED50 | > 50 µmol/kg |
| CCCCCCCCC(=O)NCc1ccc(OC)cc1 | ED50 | > 50 µmol/kg |

// fetch ED50 given entry CCCCCCCCNC(=O)Cc1ccc(O)c(OC)c1 9.2 µmol/kg

---

Collected pEC50 values appear next to each entry.
organism: Cavia porcellus; assay: In vitro contraction in guinea pig ileum equivalent to 50% capsaicin response; assay type: functional
To interpret pEC50, take it as minus log10 of a concentration measured in moles per litre.

| CPD_SMILES | NUMERIC_READOUT |
| --- | --- |
| COc1cc(CNC(=O)CCCC/C=C/C(C)C)ccc1O | 6.59 |
| CCCCCCCCNC(=O)Cc1ccc(O)cc1 | 5.56 |
| CCCCCCCCC(=O)NCc1ccc(OC)c(OC)c1 | 5.94 |

With those in mind, consider the next molecule.
Return value of pEC50 for input CCCCCCCCNC(=O)Cc1ccc(O)c([N+](=O)[O-])c1 , no commentary. 5.56
